- PROCEDURE_TEXT: in vivo
- CONDITION: female, athymic, mouse, plasma, intravenous, 1.4 mg/kg
ASSAY_ENDPOINT: concentration at 7 days (ng/mL)
Give bare numbers, in ng/mL.

Query: Need concentration at 7 days, item COCC(=O)NC/C=C/c1ccc2ncnc(Nc3ccc(Oc4ccc(C)nc4)c(C)c3)c2c1
Response: 448

###

- PROCEDURE_TEXT: Pharmacokinetics in MDA-MB-453 tumor-bearing mice
- Format: in vivo
- CONDITION: female, athymic, mouse, blood, po, 200 mg/kg, PO, QD; day 29; read-out: AUC0-4 h
ASSAY_ENDPOINT: AUC(0-t)
Answer as a quantity: numeral, then unit.

Query: Need AUC(0-t), item COCC(=O)NC/C=C/c1ccc2ncnc(Nc3ccc(Oc4ccc(C)nc4)c(C)c3)c2c1
Response: 26.1 µg·h/mL

###

- PROCEDURE_TEXT: Pharmacokinetics in BT-474 tumor-bearing mice
- Type: in vivo
- CONDITION: female, athymic, mouse, blood, po, 50 mg/kg, BID, day 22, read-out: AUC0-4 h
ASSAY_ENDPOINT: AUC(0-t) (ng·h/mL)
Answers are plain numbers, in ng·h/mL.

Query: Need AUC(0-t), item COCC(=O)NC/C=C/c1ccc2ncnc(Nc3ccc(Oc4ccc(C)nc4)c(C)c3)c2c1
Response: 5280

###

- PROCEDURE_TEXT: Pharmacokinetics in MDA-MB-453 tumor-bearing mice
- Format: in vivo
- CONDITION: female, athymic, mouse, blood, po, 50 mg/kg, PO, QD; day 29; read-out: Cmax 0.5 h
ASSAY_ENDPOINT: Cmax (ng/mL)
Give bare numbers, in ng/mL.

Query: Need Cmax, item COCC(=O)NC/C=C/c1ccc2ncnc(Nc3ccc(Oc4ccc(C)nc4)c(C)c3)c2c1 [Test Compound]
Response: 2760
